Below, each entry is listed with its recorded MIC.
system: Klebsiella aerogenes; test: Antibacterial activity against Enterobacter aerogenes MTCC 111 assessed as inhibition of visual growth after 24 hrs; format: functional; details: MTCC 111, 24 h

molecule: CN1C[C@](C#N)(C(=O)c2c[nH]c3ccccc23)[C@@H](c2cn(-c3ccccc3)nc2-c2ccccc2)[C@@]12C(=O)Nc1ccc([N+](=O)[O-])cc12
uom: µg/mL
MIC: 500
//
molecule: N#C[C@]1(C(=O)c2c[nH]c3ccccc23)C2CCCN2[C@]2(C(=O)Nc3ccc([N+](=O)[O-])cc32)[C@@H]1c1cn(-c2ccccc2)nc1-c1ccccc1 (stereo partly specified)
uom: µg/mL
MIC: 250
//
molecule: CCCCN1C(=O)[C@]2(c3ccccc31)[C@H](c1cn(-c3ccccc3)nc1-c1ccccc1)[C@@](C#N)(C(=O)c1c[nH]c3ccccc13)CN2C
uom: µg/mL
MIC: 125
//
molecule: CCCCN1C(=O)[C@]2(c3ccccc31)[C@H](c1cn(-c3ccccc3)nc1-c1ccccc1)[C@@](C#N)(C(=O)c1c[nH]c3ccccc13)C1CSCN12 (stereo partly specified)
uom: µg/mL
MIC: 500
//
molecule: CN1C[C@](C#N)(C(=O)c2c[nH]c3ccccc23)[C@@H](c2cn(-c3ccccc3)nc2-c2ccccc2)[C@@]12C(=O)Nc1ccccc12
uom: µg/mL
MIC: 500
//
molecule: C=CCN1C(=O)[C@]2(c3ccccc31)[C@H](c1cn(-c3ccccc3)nc1-c1ccccc1)[C@@](C#N)(C(=O)c1c[nH]c3ccccc13)CN2C
uom: µg/mL
MIC: 250
